Overview of recorded composite z-score for various compounds
Biological target: Neurogenic locus notch homolog protein 3 (Homo sapiens) (UniProt Q9UM47)
Sequence (Q9UM47 whole entry, looked up): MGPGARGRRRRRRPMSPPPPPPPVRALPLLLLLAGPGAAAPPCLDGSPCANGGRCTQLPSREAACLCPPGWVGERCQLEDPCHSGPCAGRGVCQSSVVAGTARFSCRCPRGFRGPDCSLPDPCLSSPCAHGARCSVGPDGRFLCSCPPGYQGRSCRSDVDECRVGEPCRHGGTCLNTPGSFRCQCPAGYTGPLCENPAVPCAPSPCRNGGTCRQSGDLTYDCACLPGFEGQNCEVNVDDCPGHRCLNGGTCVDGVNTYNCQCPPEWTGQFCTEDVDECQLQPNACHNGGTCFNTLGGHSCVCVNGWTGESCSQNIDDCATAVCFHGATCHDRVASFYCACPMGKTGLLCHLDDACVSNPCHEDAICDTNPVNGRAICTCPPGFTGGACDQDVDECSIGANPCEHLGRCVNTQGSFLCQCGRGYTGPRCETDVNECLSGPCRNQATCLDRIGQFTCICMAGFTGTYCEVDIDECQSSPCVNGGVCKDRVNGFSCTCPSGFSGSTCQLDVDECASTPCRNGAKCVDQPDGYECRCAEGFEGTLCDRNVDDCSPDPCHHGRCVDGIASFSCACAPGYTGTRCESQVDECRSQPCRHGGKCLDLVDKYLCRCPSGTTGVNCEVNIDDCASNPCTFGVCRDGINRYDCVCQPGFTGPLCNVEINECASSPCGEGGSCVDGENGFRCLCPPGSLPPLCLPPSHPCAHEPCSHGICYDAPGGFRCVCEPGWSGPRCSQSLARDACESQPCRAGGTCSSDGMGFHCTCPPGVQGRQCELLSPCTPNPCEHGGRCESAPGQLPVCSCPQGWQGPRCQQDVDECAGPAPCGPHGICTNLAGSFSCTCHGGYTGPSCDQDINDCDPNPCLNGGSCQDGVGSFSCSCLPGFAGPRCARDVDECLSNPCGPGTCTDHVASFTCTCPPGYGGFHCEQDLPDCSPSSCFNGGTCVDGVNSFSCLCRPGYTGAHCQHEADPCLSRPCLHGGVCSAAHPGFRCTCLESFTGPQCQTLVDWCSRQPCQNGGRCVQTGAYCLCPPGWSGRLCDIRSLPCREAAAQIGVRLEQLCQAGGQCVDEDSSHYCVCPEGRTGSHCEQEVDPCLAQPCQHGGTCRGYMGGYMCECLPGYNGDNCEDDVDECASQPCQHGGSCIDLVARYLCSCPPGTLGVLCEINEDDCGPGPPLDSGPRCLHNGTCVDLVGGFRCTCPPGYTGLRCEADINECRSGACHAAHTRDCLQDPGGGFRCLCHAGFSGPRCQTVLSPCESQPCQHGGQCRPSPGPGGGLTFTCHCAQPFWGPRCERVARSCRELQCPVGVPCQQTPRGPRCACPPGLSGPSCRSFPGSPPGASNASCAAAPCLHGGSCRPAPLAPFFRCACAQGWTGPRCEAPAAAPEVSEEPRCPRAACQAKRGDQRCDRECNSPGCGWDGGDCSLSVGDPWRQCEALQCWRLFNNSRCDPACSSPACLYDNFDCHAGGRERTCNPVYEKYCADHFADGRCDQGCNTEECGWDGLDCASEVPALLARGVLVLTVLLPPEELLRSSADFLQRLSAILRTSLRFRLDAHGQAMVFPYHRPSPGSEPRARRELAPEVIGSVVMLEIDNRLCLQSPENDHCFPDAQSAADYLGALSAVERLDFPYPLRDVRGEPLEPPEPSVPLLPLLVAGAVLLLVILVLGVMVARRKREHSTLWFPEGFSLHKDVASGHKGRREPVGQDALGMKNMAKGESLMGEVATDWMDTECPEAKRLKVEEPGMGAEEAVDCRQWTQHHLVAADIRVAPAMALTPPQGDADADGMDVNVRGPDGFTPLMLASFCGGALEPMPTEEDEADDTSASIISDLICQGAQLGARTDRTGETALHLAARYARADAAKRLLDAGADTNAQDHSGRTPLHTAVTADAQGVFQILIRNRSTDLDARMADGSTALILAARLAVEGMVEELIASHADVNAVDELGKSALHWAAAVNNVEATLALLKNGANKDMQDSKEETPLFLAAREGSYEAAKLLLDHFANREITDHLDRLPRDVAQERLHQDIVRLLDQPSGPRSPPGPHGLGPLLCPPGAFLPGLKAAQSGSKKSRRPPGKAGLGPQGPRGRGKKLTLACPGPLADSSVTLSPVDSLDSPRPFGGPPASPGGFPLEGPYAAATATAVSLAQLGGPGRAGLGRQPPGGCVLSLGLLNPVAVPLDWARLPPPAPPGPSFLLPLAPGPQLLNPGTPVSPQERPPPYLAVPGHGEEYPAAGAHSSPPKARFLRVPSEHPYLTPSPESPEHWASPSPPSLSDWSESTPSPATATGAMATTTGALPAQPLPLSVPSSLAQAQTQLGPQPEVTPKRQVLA
Test: NOTCH3 binders on small-molecule microarray, primary screen, biochemical, 635/667 nm fluorescence (AID 1096)
Conditions: NOTCH3 binding, 635 nm fluorescence, higher = more signal
outcome_measure: composite z-score

{"compound_smiles": "COc1ccc(CCNC(=O)[C@@]2(Sc3ccc(C)cc3)CC(=O)N(C(C)C)[C@@H]2c2ccc(CO)cc2)cc1", "outcome_measure": "composite z-score", "meas_value": -1.15}
{"compound_smiles": "COCCOC(=O)N1C(=O)[C@@]2(c3ccccc31)[C@H](C(=O)N1CCCCCCC1)[C@H]1C(=O)O[C@H](c3ccccc3)[C@H](c3ccccc3)N1[C@@H]2c1ccc(O)cc1", "outcome_measure": "composite z-score", "meas_value": 1.09}
{"compound_smiles": "Cc1ccc(S[C@]2(C(=O)NCCCN(C)C)CC(=O)N(Cc3ccccc3Cl)[C@@H]2c2ccc(CO)cc2I)cc1", "outcome_measure": "composite z-score", "meas_value": -1.22}
{"compound_smiles": "C=C(C(=O)CC[C@@H](OC(C)=O)c1cccc(OCCO)c1)C(C)C", "outcome_measure": "composite z-score", "meas_value": 0.507}
